experiment: in vitro; conditions: chlorocebus sabaeus, Vero E6 (Vero C1008) cells, pCC50
CC50 at 48 h reference
Attribute Measured: CC50 at 48 h

{"Molecule": "CSc1ccc2c(c1)N(CCC1CCCCN1C)c1ccccc1S2 (centres undefined)", "Result Value": "~6.31 µM"}
{"Molecule": "Cc1[nH]c(/C=C2\\C(=O)Nc3ccccc32)c(C)c1CCC(=O)O [ORANTINIB]", "Result Value": "> 25.1 µM"}
{"Molecule": "Cc1c(-c2ccccc2)oc2c(C(=O)OC(C)(C)CN3CCCCC3)cccc2c1=O [TERFLAVOXATE]", "Result Value": "~63.1 µM"}
{"Molecule": "CN(C)C/C=C(\\c1ccc(Br)cc1)c1cccnc1", "Result Value": "> 10 µM"}
{"Molecule": "CC(C)(C)c1ccc(C(O)CCCN2CCC(C(O)(c3ccccc3)c3ccccc3)CC2)cc1 (centres undefined)", "Result Value": "~5.13 µM"}
{"Molecule": "O=C1OC2(c3ccc(O)cc3Oc3cc(O)ccc32)c2ccccc21", "Result Value": "> 20 µM"}
{"Molecule": "O=C1c2c(O)cccc2Cc2cccc(O)c21", "Result Value": "> 100 µM"}
{"Molecule": "CC(=O)c1ccc2c(c1)N(CCCN1CCN(CCO)CC1)c1ccccc1S2", "Result Value": "~14.5 µM"}
{"Molecule": "Cc1cc2nc3c(=O)[nH]c(=O)nc-3n(C[C@H](O)[C@H](O)[C@H](O)CO)c2cc1C", "Result Value": "> 50.1 µM"}
